Attribution: ChEMBL document CHEMBL5584318

Reported half-life values for a set of compounds
PROTOCOL_SUMMARY: Half life in human
Assay type: ADME
REPORTED_PROPERTY: half-life (min)

> print(dat)
                               given.smiles  recorded.number
1  Cn1cc(-c2cnn3ccc(N4CCC[C@@H]4c4cc(F)ccc4OCC(F)F)nc23)cn1              8.3
2  Cn1cc(-c2cnn3ccc(N4CCC[C@@H]4c4cc(F)ccc4F)nc23)cn1                3
3  C[C@@H](Nc1ccn2ncc(-c3cnn(C)c3)c2n1)c1cc(F)ccc1OCC(F)F              315
